Test system: E. faecalis MMH594 whole cells (TyrDC)
Assay: Inhibition of L-dopa decarboxylation in E. faecalis whole cells
Format: cell-based, Enterococcus faecalis MMH594
Details: Enterococcus faecalis; E. faecalis whole cells / cultures
readoutKind: EC50 (nM)
Give bare numbers, in nM.

(Q) Observed EC50 on E. faecalis MMH594 whole cells (TyrDC) for `N[C@@](CF)(Cc1ccc(O)cc1)C(=O)O` , please.
(A) 1400
